test.description: Growth inhibition of human GIST48B cells after 72 hrs by SRB assay
Format: cell-based
Reported GI50 at 72 h is given for each of the following compounds.
Write the answer as a number in µM, unit excluded.

INSERT INTO assay_data (entry_smiles, experimental_endpoint, unit, endpoint_result) VALUES
  ('Cc1ccc(C(=O)Nc2ccc(CN3CCN(C)CC3)c(C(F)(F)F)c2)cc1C#Cc1cnc2cccnn12', 'GI50 at 72 h', 'µM', 2.12);

The record that follows has no GI50 at 72 h shown yet.
Lookup: Read the entry Cc1ccc(NC(=O)c2ccc(CN3CCN(C)CC3)cc2)cc1Nc1nccc(-c2cccnc2)n1 and write its reported GI50 at 72 h.
Found: 20
